# maps each entry to its 5+ nucleoli phenotype percent effect
- Tested on: MCF10A
- test: 5+ nucleoli phenotype percent effect (relative to siNT 0% and siKIF11 100%); higher = more cells with five or more nucleoli
- condition notes: 20 nM; 72 h
Number in %, nothing else.

# example entries with known answers
1) UCAAGGCCAGAGGUCCCACAGCA [hsa-miR-3922-5p] = -12.7
2) AGGGCCCCCCCUCAAUCCUGU [hsa-miR-296-5p] = 11.6
3) UGGGGGGACAGGAUGAGAGGCUGU [hsa-miR-6795-5p] = -6.99
4) UUGGCUGGUCUCUGCUCCGCAG [hsa-miR-6842-3p] = -0.515
5) AGGAGCUAGCCAGGCAUAUGCA [hsa-miR-4633-3p] = -40.1

Continue with the next sequence.
Exam item: I am curious: what 5+ nucleoli phenotype percent effect value has been reported for CAAAACGUGAGGCGCUGCUAU [hsa-miR-424-3p] ?
Marked response: -16.6
